pIC50: −log10 of the molar value.
The compounds below each have a reported pIC50 tested on C-C chemokine receptor type 5 (Homo sapiens); the values come from various publications.
reported.metric: pIC50

CN(C[C@@H](CCN1CCC(c2cccc(C(F)(F)F)c2)CC1)c1cccc(Cl)c1)S(=O)(=O)c1ccccc1 = 5.70
Cc1ccccc1N1CCN(CC[C@H](CN(C)S(=O)(=O)c2ccccc2)c2cccc(Cl)c2)CC1 = 6.46
CN(C[C@@H](CCN1CCC2(CC1)C[S+]([O-])c1ccccc12)c1ccc(Cl)c(Cl)c1)S(=O)(=O)Cc1ccccc1 (stereo partly drawn) = 7.00
Cc1ncnc(C)c1C(=O)N1C[C@H]2CN(CCC(c3cccc(F)c3)C3CCN(CC(F)F)CC3)C[C@H]2C1 (stereo partly drawn) = 7.46
CN(C)c1cc(Br)ccc1OCc1ccc(Cl)cc1 = 6.22
CCCCC1C(=O)N(C[C@H]2CC[C@H](OC)CC2)CCC12CCN(C1(C)CCN(C(=O)c3c(C)ncnc3C)CC1)CC2 (stereo partly drawn) = 7.43

1: CNC(=O)N1CCC(CN2C[C@@H](c3ccccc3)N(C3CCN(C4(C)CCN(C(=O)c5c(C)cc(C#N)nc5C)CC4)CC3)C2=O)CC1
2: CC(C)[C@]1(C(=O)N2CCN(c3cccc(C(F)(F)F)c3)CC2)CC[C@@H](NC2CCOCC2)C1
Please indicate which has the smaller reported pIC50: 1 , or 2 . Use the label to indicate which entry you chose.
2

* * *

The molecules below each have a reported pIC50 tested on C-C chemokine receptor type 5 (Homo sapiens, UniProt P51681); the values come from various publications.
pIC50: −log10 of the molar value.
reported.metric: pIC50

Reference set, count: 4
Cc1cccc(C)c1C(=O)N1C[C@H]2CN(CC[C@H](NC(=O)C(C)C)c3ccccc3)C[C@H]2C1 = 7.96
CNC(=O)NC1CCN(CCC(CN(C)S(=O)(=O)c2ccccc2)c2ccccc2)CC1 (stereo not given) = 6.92
CN(C[C@@H](CCN1CCC2(CC1)CC(=O)Nc1ccccc12)c1ccc(Cl)c(Cl)c1)S(=O)(=O)c1cccc([N+](=O)[O-])c1 = 5.16
CO[C@H]1COCC[C@H]1N[C@@H]1CC[C@@](C(=O)N2CCN(c3cccc(C(F)(F)F)c3)CC2)(C(C)C)C1 = 6.69

P: Cc1ncnc(C)c1C(=O)N1C[C@H]2CN(CCC(c3ccccc3)C3CCN(S(=O)(=O)C4CCCC4)CC3)C[C@H]2C1 (stereo not given in full)
Q: CCCCC1CN(CC2CCOCC2)C(=O)N1C1CCN(C2(C)CCN(C(=O)c3c(C)ncnc3C)CC2)CC1 (racemic)
R: CN(C[C@@H](CCN1CCC2(CC1)Cc1ccccc1O2)c1cccc(Cl)c1)S(=O)(=O)c1ccccc1
Order the entries by their reported pIC50, beginning at the minimum. Your reply should list the labels following the order given in the request.
R, Q, P

1: Cc1ncnc(C)c1C(=O)N1C[C@H]2CN(CCC(c3ccccc3)C3CN(S(=O)(=O)C4CCCC4)C3)C[C@H]2C1 (stereo not given in full)
2: Cc1ncnc(C)c1C(=O)N1C[C@H]2CN(CCC(c3ccccc3)C3CCN(S(=O)(=O)CC(F)(F)F)CC3)C[C@H]2C1 (stereo not given in full)
3: C[N+]1(Cc2ccc(NC(=O)C3=Cc4cc(-c5ccccc5)ccc4CC3)cc2)CCCCCC1
Order the entries by their reported pIC50, beginning at the minimum. Your reply should list the labels following the order given in the request.
3, 2, 1
(3: 6.42, 2: 7.32, 1: 7.66)

I: O=C(NCc1cc(C(F)(F)F)cc(C(F)(F)F)c1)[C@@H](CCN1CCC2(C=Cc3ccccc32)CC1)c1ccc(F)cc1
II: CN(C[C@@H](CCN1CCC2(CC1)C[S+]([O-])c1ccccc12)c1ccc(Cl)c(Cl)c1)S(=O)(=O)c1cccc2ccccc12 (stereo not given in full)
Please indicate which has the smaller reported pIC50: I , or II . Use the label to indicate which entry you chose.
II
(II: 5.58, I: 7.52)

* * *

The compounds below each have a reported IC50 tested on UniProt P51681; the values come from various publications.
reported.metric: IC50 (nM)

C=CCN(C(=O)OCc1ccc([N+](=O)[O-])cc1)C1CCN(CC[C@@H](C[C@H](C)S(=O)(=O)c2ccccc2)c2ccccc2)CC1 = 3500

I: Cc1ncnc(C)c1C(=O)N1C[C@H]2CN(CC[C@H](NC(=O)CC3CCC(F)(F)CC3)c3cccc(F)c3)C[C@H]2C1
II: CC(=O)N[C@@H]1C[C@H](N(C)C(C)C)CC[C@@H]1N1CC[C@H](Nc2ncnc3ccc(C(F)(F)F)cc23)C1=O
III: CCN(C(=O)OC)C1CCN(CC[C@H](CN(C)S(=O)(=O)c2ccccc2)c2cccc(Cl)c2)CC1
Please list these compounds in decreasing order of IC50. Your reply should list the labels following the order given in the request.
II, III, I

* * *

The compounds below each have a reported IC50 tested on C-C chemokine receptor type 5 (Homo sapiens); the values come from various publications.
reported.metric: IC50 (nM)

P: CC(=O)N[C@@H](CCN1C[C@@H]2CN(C(=O)c3c(C)cccc3C)C[C@@H]2C1)c1ccccc1
Q: C=CCN(C(=O)OCc1ccc([N+](=O)[O-])cc1)C1CCN(CCC(C)(CCS(=O)(=O)c2ccccc2)c2ccccc2)CC1 (centres undefined)
R: N=C(N)N/N=C/c1cc(Br)ccc1OCc1ccc(Cl)cc1
S: CCCCC1CN(C2CCOCC2)C(=O)N1C1CCN(C2(C)CCN(C(=O)c3c(C)ncnc3C)CC2)CC1 (racemic)
Rank descending by IC50. Your reply should list the labels following the order given in the request.
Q, R, S, P

* * *

The compounds below each have a reported IC50 tested on C-C chemokine receptor type 5 (Homo sapiens); the values come from various publications.
reported.metric: IC50 (nM)

P: Cc1cccc(C)c1C(=O)N1C[C@H]2CN(CC[C@H](NC(=O)C3CCOC3)c3ccccc3)C[C@H]2C1 (stereo partly specified)
Q: CNC(=O)N1CCC(CN2C[C@@H](c3ccccc3)N(C3CCN(C4(C)CCN(C(=O)c5c(C)ncnc5C)CC4)CC3)C2=O)CC1
R: COC(=O)[C@H](C1CCCCC1)N1C[C@H](CN2CCC(O)(CCCc3ccccc3)CC2)[C@@H](c2ccccc2)C1
S: Cc1ncnc(C)c1C(=O)N1CCC(C)(N2CCC(N3C(=O)N(CCC4CCOCC4)C[C@H]3c3ccccc3)CC2)CC1
In ascending order of recorded IC50, list the compounds from the set above. Your reply should list the labels following the order given in the request.
R, S, P, Q

* * *

pIC50: −log10 of the molar value.
The molecules below each have a reported pIC50 tested on C-C chemokine receptor type 5 (Homo sapiens); the values come from various publications.
reported.metric: pIC50

Reference set, count: 5
CCCOC1CN(S(=O)(=O)C2CC2)CCC12CCN(C1(C)CCN(C(=O)c3c(C)ncnc3C)CC1)CC2 (stereo unspecified) = 7.10
COC(=O)N1CCC(C(CCN2C[C@@H]3CN(C(=O)c4c(C)ncnc4C)C[C@@H]3C2)c2ccccc2)CC1 (stereo partly specified) = 6.99
CC[C@H]1COCC[C@H]1N[C@@H]1CC[C@@](C(=O)N2CCN(c3cccc(C(F)(F)F)c3)CC2)(C(C)C)C1 = 6.51
Cc1ccc(-c2ccc3c(c2)C=C(C(=O)Nc2ccc(C[N+]4(C)CCCCC4)cc2)CO3)cc1 = 6.18
CN(C[C@@H](CCN1CCC(CCc2ccccc2)CC1)c1cccc(Cl)c1)S(=O)(=O)c1ccccc1 = 6.22

P: Cc1ccc(-c2ccc3c(c2)C=C(C(=O)Nc2ccc(C[N+]4(C)CCCCC4)cc2)CCC3)cc1
Q: N=C(N)N/N=C/c1cc(Br)ccc1OCc1ccc(F)c(F)c1
Please indicate which has the smaller reported pIC50: P , or Q . Use the label to indicate which entry you chose.
Q

P: CCCCC1CN(S(=O)(=O)C2CCOCC2)CCC12CCN(C1(C)CCN(C(=O)c3c(C)ncnc3C)CC1)CC2 (stereo unspecified)
Q: CC(C)N(C)[C@@H]1CC[C@H](N2CC[C@H](Nc3ncnc4ccc(C(F)(F)F)cc34)C2=O)[C@H](NS(C)(=O)=O)C1
R: CN(C[C@@H](CCN1CCC2(CCc3ccccc32)CC1)c1cccc(Cl)c1)S(=O)(=O)c1ccccc1
Please list these molecules in decreasing order of pIC50. Your reply should list the labels following the order given in the request.
P, Q, R
(P: 7.66, Q: 6.54, R: 6.05)

1: CCCCC1C(=O)N(C[C@H]2CC[C@H](OCC)CC2)CCC12CCN(C1(C)CCN(C(=O)c3c(C)ncnc3C)CC1)CC2 (stereo partly specified)
2: C=CCN(C(=O)OCc1ccc([N+](=O)[O-])cc1)C1CCN(CCC(CC(C)S(=O)(=O)CC)c2ccccc2)CC1 (stereo unspecified)
Returns: the argument ( 1 or 2 ) having the larger pIC50. Use the label to indicate which entry you chose.
1
(1: 7.52, 2: 5.22)

I: CC(=O)N1C[C@H]2CN(CC[C@H](NC(=O)C3CCCC3)c3ccccc3)C[C@H]2C1
II: Cc1ccc(-c2ccc3c(c2)C=C(C(=O)Nc2ccc(C[N+](C)(C)C4CCOCC4)cc2)CCC3)cc1
Please indicate which has the smaller reported pIC50: I , or II . Use the label to indicate which entry you chose.
I
(I: 6.33, II: 8.85)
